# target_or_test_system: T1, CGRP1 receptor (CRLR/RAMP1 complex) of human neuroblastoma SK-N-MC cells (human, UniProt Q16602 23-461; O60894 27-148)
# T1 construct: whole, on cells
# T1 sequence (Q16602 23-461, chain 1 of 2): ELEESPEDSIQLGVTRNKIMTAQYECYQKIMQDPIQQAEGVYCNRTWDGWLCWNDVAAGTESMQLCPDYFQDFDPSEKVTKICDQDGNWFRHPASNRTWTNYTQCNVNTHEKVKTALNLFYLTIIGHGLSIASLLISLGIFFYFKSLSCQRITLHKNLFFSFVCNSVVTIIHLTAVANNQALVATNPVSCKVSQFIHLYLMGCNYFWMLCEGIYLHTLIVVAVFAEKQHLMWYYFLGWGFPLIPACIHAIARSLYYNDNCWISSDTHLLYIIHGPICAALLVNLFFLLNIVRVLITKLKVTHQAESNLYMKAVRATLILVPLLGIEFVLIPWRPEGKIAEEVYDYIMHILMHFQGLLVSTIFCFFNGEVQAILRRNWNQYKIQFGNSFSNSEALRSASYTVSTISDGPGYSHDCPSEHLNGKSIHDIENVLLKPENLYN
# T1 sequence (O60894 27-148, chain 2 of 2): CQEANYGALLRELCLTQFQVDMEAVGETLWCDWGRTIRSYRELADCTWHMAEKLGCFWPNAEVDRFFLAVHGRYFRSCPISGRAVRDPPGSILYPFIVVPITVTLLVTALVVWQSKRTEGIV
# experiment_notes: 125I-hαCGRP competition, SK-N-MC membranes
Square brackets hold non-standard residues; d marks the D form. Ends that are not written are not given here. Bn2 = Nα,Nα-dibenzyl on N-terminal residue; Cha = N[C@@H](CC1CCCCC1)C(=O)O
// NB: equality with 0.8 nM counts as NO; only Ki strictly below is YES

Take a look at these entries with their results.
{"columns": ["binder", "group"],
 "data": [
  ["ASDTATCVTHRLAGLLSRSGGVVKNNFVPTNVGSKAF (ASDTATC(Acm)VTHRLAGLLSRSGGVVKNNFVPTNVGSKAF-NH2) [SEQ ID NO 707]", "NO"],
  ["WVTHRLAGLLSRSGGVVKCNFVPTNVGSKAF (WVTHRLAGLLSRSGGVVKC^(5 kDa MeO-PEG)NFVPTNVGSKAF-amide) [SEQ ID NO 695]", "NO"],
  ["ASDTATSVTHRLAGLLSRSGGVVKNNFVPTNVGSKAF-NH2 [SEQ ID NO 709]", "NO"],
  ["Bn2-VTHRLAGLLSRSGGVVKNNFVPTDVGPFAF-NH2 [SEQ ID NO 702]", "YES"],
  ["Ac-VTHRLAGLLSRSGGVVRK(PEG 5 kDa)NFVPTDVGPFAF-NH2 [SEQ ID NO 229]", "YES"],
  ["WVTHRLAGLLSRSGGVVKC(MeO‑PEG 5 kDa)NFVPTDVGPFAF-NH2 [SEQ ID NO 696]", "YES"],
  ["WVTHXLAGLLSXSGGVVRKNFVPTDVGPFAF (Ac-WVTH[Cit]LAGLLS[Cit]SGG VVRK^(20 kDa MeO-PEG)NFVPTDVGPFAF-amide) [SEQ ID NO 791]", "NO"],
  ["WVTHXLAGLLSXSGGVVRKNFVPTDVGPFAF (Ac-WVTH[Cit]LAGLLS[Cit]SGGVVRK(20 KPEGald)NFVPTDVGPFAF-NH2) [SEQ ID NO 158]", "NO"],
  ["Ac-WVTHRLAGLLSRSGGVVKCNFVPTDVGPFAF-NH2 (not fully specified (residue 19); printed as Ac-WVTHRLAGLLSRSGGVVKC^(20 kDa PEG)NFVPTDVGPFAF-amide) [SEQ ID NO 231]", "YES"],
  ["[Cha]VTHRLAGLLSRSGGVVKNNFVPTDVGPFAF-NH2 [SEQ ID NO 704]", "YES"]
]}

In the record for C(MeO‑PEG 5 kDa)GGGGGGGVTHRLAGLLSRSGGVVKNNFVPTNVGSKAF-NH2 [SEQ ID NO 690] , is Ki less than 0.8 nM?
NO

In the record for WVTHXLAGLLSXSGGVVXKNFVPTDVGPXAF (Ac-WVTH[Cit]LAGLLS[Cit]SGGVV[hArg]K(20 KPEGald)NFVPTDVGP[1-Nal]AF-NH2) [SEQ ID NO 173] , is Ki less than 0.8 nM?
NO
